Each entry below carries its reported viability, T/C.
- System: 777334-354-R2-J4-PDC tumor spheroids with HUVEC/MSC, viability
- assay-info: Anticancer human tumor 777334-354-R2-J4-PDC patient-derived pancreatic adenocarcinoma cell line growth inhibition [GQUAD]
- condition-description: second compound 1 µM; first compound 0.0316 µM; active compounds read low
- Source text: DNA G-quadruplex Stabilizer Agents in Combinations in Complex Spheroids A high-throughput screen of multi-cell type tumor spheroids was designed to identify active combinations of DNA G-quadruplex stabilizer agents and targeted small molecules. […] Compounds. […] If the clinical Cmax for an agent had not been determined, the highest concentration tested was 10 microM. […]
Value expressed in %; do not type the unit.

I am curious: what viability, T/C value has been reported for C#Cc1c(F)ccc2cc(O)cc(-c3ncc4c(N5CC6CCC(C5)N6)nc(OCC56CCCN5CC(F)C6)nc4c3F)c12 (stereo not given) + Cc1[nH]c2ccc(F)cc2c1-c1nc2c3cccnc3c3ncccc3c2[nH]1 ?
48

I am curious: what viability, T/C value has been reported for C=CCn1c(=O)c2cnc(Nc3ccc(N4CCN(C)CC4)cc3)nc2n1-c1cccc(C(C)(C)O)n1 + Cc1[nH]c2ccc(F)cc2c1-c1nc2c3cccnc3c3ncccc3c2[nH]1 ?
75.3

I am curious: what viability, T/C value has been reported for CC1COCCN1c1cc(C2(S(C)(=N)=O)CC2)nc(-c2ccnc3[nH]ccc23)n1 (stereo not given) + Cc1[nH]c2ccc(F)cc2c1-c1nc2c3cccnc3c3ncccc3c2[nH]1 ?
88.7

I am curious: what viability, T/C value has been reported for CCc1c2c(nc3ccc(O)cc13)-c1cc3c(c(=O)n1C2)COC(=O)[C@]3(O)CC + Cc1cnc(CNC(=O)c2c(=O)c3ccc(N4CCCN(C)CC4)nc3n3c2sc2ccccc23)cn1 ?
32.1

I am curious: what viability, T/C value has been reported for O=C(c1cc(Cc2n[nH]c(=O)c3ccccc23)ccc1F)N1CCN(C(=O)C2CC2)CC1 + CN(C)c1ccc(Nc2c3ccc(NC(=O)CCN4CCCC4)cc3nc3cc(NC(=O)CCN4CCCC4)ccc23)cc1 ?
84.9

###

- Test system: 777334-354-R2-J4-PDC tumor spheroids with HUVEC/MSC, viability
- assay-info: Anticancer human tumor 777334-354-R2-J4-PDC cell line growth inhibition [GQUAD];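 further: spheroids exposed to compounds for 7 days before readout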
- condition-description: second compound 0.0316 µM; first compound 0.1 µM; active compounds read low
observation-type: viability, T/C (%)
Value expressed in %; do not type the unit.

{"molecule": "CC(C)(O)C1CCC(Nc2ccc3ncc(-c4cccc(C(F)(F)F)c4)n3n2)CC1 (stereo not given) + Cc1[nH]c2ccc(F)cc2c1-c1nc2c3cccnc3c3ncccc3c2[nH]1", "assay-system": "777334-354-R2-J4-PDC tumor spheroids with HUVEC/MSC, viability", "readout-number": 97.5}
{"molecule": "COc1cc(C2c3cc4c(cc3C(OC3OC5COC(C)OC5C(O)C3O)C3COC(=O)C23)OCO4)cc(OC)c1O (stereo not given) + Cc1[nH]c2ccc(F)cc2c1-c1nc2c3cccnc3c3ncccc3c2[nH]1", "assay-system": "777334-354-R2-J4-PDC tumor spheroids with HUVEC/MSC, viability", "readout-number": 91}

I am curious: what viability, T/C value has been reported for CC(=O)O[C@H]1C(=O)[C@@]2(C)[C@H]([C@H](OC(=O)c3ccccc3)[C@]3(O)C[C@H](OC(=O)[C@H](O)[C@@H](NC(=O)c4ccccc4)c4ccccc4)C(C)=C1C3(C)C)[C@]1(OC(C)=O)CO[C@@H]1C[C@@H]2O + CN(C)c1ccc(Nc2c3ccc(NC(=O)CCN4CCCC4)cc3nc3cc(NC(=O)CCN4CCCC4)ccc23)cc1 ?
57.2

I am curious: what viability, T/C value has been reported for COc1cc(C2c3cc4c(cc3C(OC3OC5COC(C)OC5C(O)C3O)C3COC(=O)C23)OCO4)cc(OC)c1O (stereo not given) + CN(C)c1ccc(Nc2c3ccc(NC(=O)CCN4CCCC4)cc3nc3cc(NC(=O)CCN4CCCC4)ccc23)cc1 ?
87.8

I am curious: what viability, T/C value has been reported for C=CCn1c(=O)c2cnc(Nc3ccc(N4CCN(C)CC4)cc3)nc2n1-c1cccc(C(C)(C)O)n1 + CN(C)c1ccc(Nc2c3ccc(NC(=O)CCN4CCCC4)cc3nc3cc(NC(=O)CCN4CCCC4)ccc23)cc1 ?
94.8
